Molecular target: recombinant GST-GK (Homo sapiens, UniProt P35557)
Sequence (P35557 whole entry): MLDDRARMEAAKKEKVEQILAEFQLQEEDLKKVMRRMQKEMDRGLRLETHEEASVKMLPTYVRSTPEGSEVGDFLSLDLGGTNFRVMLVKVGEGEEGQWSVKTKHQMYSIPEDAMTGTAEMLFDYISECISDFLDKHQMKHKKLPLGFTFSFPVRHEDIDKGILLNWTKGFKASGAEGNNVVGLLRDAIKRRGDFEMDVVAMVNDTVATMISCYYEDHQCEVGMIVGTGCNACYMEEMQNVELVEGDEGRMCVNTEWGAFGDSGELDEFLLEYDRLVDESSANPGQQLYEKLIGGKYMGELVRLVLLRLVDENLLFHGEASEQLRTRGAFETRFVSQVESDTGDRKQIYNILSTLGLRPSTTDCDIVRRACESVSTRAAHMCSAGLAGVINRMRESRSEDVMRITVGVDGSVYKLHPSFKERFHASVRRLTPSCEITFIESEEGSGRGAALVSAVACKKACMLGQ
Assay: activation of recombinant GST-GK in vitro (primary enzyme assay)
Format: biochemical
Details: concentration of compound that produces a 50% increase in the activity of GK; read-out: EC50 in primary enzyme assay
observable: pEC50
Scale: pEC50 equals -log10([C]), with [C] in mol/L.

For orientation, consider the following solved cases.
| compound | pEC50 |
| --- | --- |
| COCCN(CCC(=O)O)S(=O)(=O)c1ccc([C@H](CC2CCCC2)C(=O)Nc2nc3ccc(Cl)nc3s2)cc1 [Example 4-51] | 4.36 |
| COc1ccc(CN(CCC(=O)O)S(=O)(=O)c2ccc([C@@H](CC3CCCC3)C(=O)Nc3nc4ccc(OC)nc4s3)cc2)cc1 [Example 4-21] | 6.04 |
| COc1ccc2nc(NC(=O)[C@H](CC3CCCC3)c3ccc(S(=O)(=O)N(CCC(=O)O)Cc4cc5ccccc5o4)cc3)sc2n1 [Example 3] | 6.66 |
| COCCN(CCC(=O)O)S(=O)(=O)c1ccc([C@@H](CC2CCCC2)C(=O)Nc2nc3ccc(SC)nc3s2)cc1 [Example 4-42] | 6.64 |

Request: Give the value of pEC50 reported for the following: COCCNC(=O)c1ccc2nc(NC(=O)[C@@H](CC3CCCC3)c3ccc(S(=O)(=O)N(CCOC)CCC(=O)O)cc3)sc2n1 [Example 4-60]
Response: 5.22
